target: androgen receptor (AR) (Homo sapiens, UniProt P10275); assay: Agonist activity at AR (unknown origin) expressed in human LNCaP cells incubated for 20 hrs by luciferase reporter gene assay relative to mifepristone; format: cell-based; conditions: human LNCaP cells expressing AR
Sequence (P10275 whole entry): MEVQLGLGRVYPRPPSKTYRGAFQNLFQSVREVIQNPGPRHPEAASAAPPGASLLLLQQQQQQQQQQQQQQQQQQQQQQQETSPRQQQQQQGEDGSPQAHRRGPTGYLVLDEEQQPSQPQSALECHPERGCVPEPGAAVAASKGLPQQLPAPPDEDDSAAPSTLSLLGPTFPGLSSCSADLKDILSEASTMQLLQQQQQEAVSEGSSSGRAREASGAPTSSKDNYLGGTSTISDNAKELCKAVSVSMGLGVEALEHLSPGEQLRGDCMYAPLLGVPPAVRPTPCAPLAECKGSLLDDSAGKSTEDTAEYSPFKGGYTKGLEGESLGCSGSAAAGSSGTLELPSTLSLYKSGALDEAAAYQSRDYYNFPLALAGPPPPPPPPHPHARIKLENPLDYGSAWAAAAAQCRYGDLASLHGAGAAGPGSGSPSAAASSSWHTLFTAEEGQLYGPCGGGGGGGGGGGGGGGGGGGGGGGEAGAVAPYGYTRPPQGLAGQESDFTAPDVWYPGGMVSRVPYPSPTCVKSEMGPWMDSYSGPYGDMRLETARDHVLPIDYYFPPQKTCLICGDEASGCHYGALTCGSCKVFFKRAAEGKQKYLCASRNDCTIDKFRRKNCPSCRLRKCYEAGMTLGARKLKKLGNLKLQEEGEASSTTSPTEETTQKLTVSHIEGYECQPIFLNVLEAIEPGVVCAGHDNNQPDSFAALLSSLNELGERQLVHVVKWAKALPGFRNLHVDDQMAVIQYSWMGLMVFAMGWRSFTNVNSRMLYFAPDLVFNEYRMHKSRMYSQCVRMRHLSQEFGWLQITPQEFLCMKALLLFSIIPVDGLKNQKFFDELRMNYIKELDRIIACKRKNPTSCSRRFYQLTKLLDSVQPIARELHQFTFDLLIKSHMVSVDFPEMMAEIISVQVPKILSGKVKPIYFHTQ
Quick rule for you: Emax at 20 h under 20% gets yes, anything else gets no.

{"columns": ["structure_as_smiles", "system_tested", "qualitative_label"],
 "data": [
  ["CC(C)N(C)c1ccc([C@H]2C[C@@]3(C)[C@@H](CC[C@@]3(O)C#CC(C)(C)C)[C@@H]3CCC4=CC(=O)CCC4=C32)cc1", "androgen receptor (AR) (Homo sapiens, UniProt P10275)", "yes"]
]}

Q) Emax at 20 h under 20%? Item: `CC(C)(C)C#C[C@]1(O)CC[C@H]2[C@@H]3CCC4=CC(=O)CCC4=C3[C@@H](c3ccc(N4CCS(=O)(=O)CC4)cc3)C[C@@]21C`
A) no
